Hello, the source for this data is patent US11524938B2, in case you need it.

Target: UniProtKB Q99571
Experiment: Human P2X4 HEK Cell FLIPR Assay
Format: cell-based
Conditions: HEK293 cells, agonist Bz-ATP at EC80; individual values listed where some fall outside detection range
pIC50: −log10 of the molar value.
observed_property: pIC50

A. CC(C)(O)Cn1cc(-c2ccc(NC(=O)Cc3ccccc3Cl)cc2S(N)(=O)=O)cn1
B. Cc1ccc(CC(=O)Nc2ccc(-n3ncc(C(F)(F)F)n3)c(S(N)(=O)=O)c2)cc1
C. NS(=O)(=O)c1cc(NC(=O)Cc2ccccc2C(F)(F)F)ccc1-c1ccc(Cl)nc1
D. NS(=O)(=O)c1cc(NC(=O)Cc2ccccc2F)ccc1-c1cccnc1
QUERY: // rank above by pIC50: first = highest number Please express your ranking as an ordered list of the labels.
RESULT: C, D, A, B

---

Molecular target: human P2X4 (Homo sapiens, UniProt Q99571)
Sequence (Q99571 whole entry): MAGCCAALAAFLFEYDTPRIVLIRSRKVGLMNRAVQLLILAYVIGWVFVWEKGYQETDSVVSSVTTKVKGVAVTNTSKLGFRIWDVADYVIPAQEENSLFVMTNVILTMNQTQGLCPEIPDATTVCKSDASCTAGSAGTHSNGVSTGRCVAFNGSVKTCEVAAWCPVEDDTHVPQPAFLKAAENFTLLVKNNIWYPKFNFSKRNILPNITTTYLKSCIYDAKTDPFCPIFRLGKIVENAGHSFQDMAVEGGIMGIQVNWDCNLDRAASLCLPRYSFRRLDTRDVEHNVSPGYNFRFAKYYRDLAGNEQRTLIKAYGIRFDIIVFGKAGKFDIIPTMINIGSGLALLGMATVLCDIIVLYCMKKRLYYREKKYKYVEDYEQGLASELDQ
Assay: Human P2X4 HEK Cell FLIPR Assay
Settings: HEK293 cells, agonist Bz-ATP at EC80; individual values listed where some fall outside detection range
observed_property: IC50 (nM)

Known IC50 results, listed for orientation:
{"compound": "Cn1cc(-c2ccc(NC(=O)Cc3ccccc3F)cc2S(N)(=O)=O)cn1 [Example 374]", "test_target": "human P2X4 (Homo sapiens, UniProt Q99571)", "observed_property": "IC50", "value_unit": "nM", "obs_value": 386}
{"compound": "Cc1ncc(-c2ccc(NC(=O)Cc3ccccc3Cl)cc2S(N)(=O)=O)cn1 [Example 313]", "test_target": "human P2X4 (Homo sapiens, UniProt Q99571)", "observed_property": "IC50", "value_unit": "nM", "obs_value": 713}
{"compound": "NS(=O)(=O)c1cc(NC(=O)Cc2ccccc2Cl)ccc1-n1cc(NCC(F)F)cn1 [Example 258]", "test_target": "human P2X4 (Homo sapiens, UniProt Q99571)", "observed_property": "IC50", "value_unit": "nM", "obs_value": 30}

A. C[C@H]1CC[C@H](C)N1c1cnn(-c2ccc(NC(=O)Cc3ccccc3Cl)cc2S(N)(=O)=O)c1 (single isomer, unassigned) [Example 512]
B. NS(=O)(=O)c1cc(NC(=O)Cc2ccccc2F)ccc1-c1cnn(C(F)F)c1 [Example 296]
C. N#Cc1cnn(-c2ccc(NC(=O)Cc3cc(O)ccc3Cl)cc2S(N)(=O)=O)c1 [Example 556]
D. COCc1ncn(-c2ccc(NC(=O)Cc3ccccc3Cl)cc2S(N)(=O)=O)n1 [Example 38]
QUERY: Given 4 compounds, produce a descending ranking by IC50. Please express your ranking as an ordered list of the labels.
RESULT: A, D, B, C

---

Molecular target: human P2X4 (Homo sapiens)
Assay: Human P2X4 HEK Cell FLIPR Assay
Settings: HEK293 cells, agonist Bz-ATP at EC80; individual values listed where some fall outside detection range
observed_property: IC50 (nM)

{"molecule": "COc1ccc(CC(=O)Nc2ccc(-c3ccc(Cl)nc3)c(S(N)(=O)=O)c2)cc1 [Example 470]", "test_target": "human P2X4 (Homo sapiens)", "value_unit": "nM", "obs_value": 483}
{"molecule": "NS(=O)(=O)c1cc(NC(=O)Cc2ccc(F)cc2F)ccc1-c1cncc(C(F)(F)F)c1 [Example 450]", "test_target": "human P2X4 (Homo sapiens)", "value_unit": "nM", "obs_value": 148}
{"molecule": "NS(=O)(=O)c1cc(NC(=O)Cc2ccc(Cl)cc2Cl)ccc1-c1ccc(Cl)nc1 [Example 465]", "test_target": "human P2X4 (Homo sapiens)", "value_unit": "nM", "obs_value": 26}
{"molecule": "NS(=O)(=O)c1cc(NC(=O)Cc2ccccc2Cl)ccc1-c1ncc(N2CCOCC2)s1 [Example 550]", "test_target": "human P2X4 (Homo sapiens)", "value_unit": "nM", "obs_value": 1}
{"molecule": "CC(C)n1cc(-c2ccc(NC(=O)Cc3ccccc3Cl)cc2S(N)(=O)=O)cn1 [Example 359]", "test_target": "human P2X4 (Homo sapiens)", "value_unit": "nM", "obs_value": 77}
{"molecule": "COc1ccccc1CC(=O)Nc1ccc(-n2cc(Cl)cn2)c(S(N)(=O)=O)c1 [Example 75]", "test_target": "human P2X4 (Homo sapiens)", "value_unit": "nM", "obs_value": 213}

I. NS(=O)(=O)c1cc(NC(=O)Cc2c(F)ccc(F)c2Cl)ccc1-n1cc(Cl)cn1 [Example 96]
II. NS(=O)(=O)c1cc(NC(=O)Cc2c(F)cccc2Cl)ccc1-c1cncc(C(F)(F)F)c1 [Example 445]
QUERY: Of I and II , which carries the smaller reported IC50 figure? Lab log: write the label of the selected item as the result.
RESULT: II
